B1: Zinc finger homeobox protein 3, residues 2643 to 2698; numbered along this chain, Q15911 (parent)
chain: RLRTTITPEQLEILYQKYLLDSNPTRKMLDHIAHEVGLKKRVVQVWFQNTRARERK

# Variants of: B1
# experiment notes: abundance fitness (aPCA) (normalised: wild type 0, dead -1); higher = more abundant; growth selection in yeast, the domain comes from the species named
# settings: Homo sapiens
Listing of entries alongside the reported abundance fitness.
Reply: number alone, nothing else.

Answered cases to consult:
A33P :: -0.746
Q10Y :: -0.792
R26P :: 0.35
E12I :: -0.438

Prompt line: Quote abundance fitness reported for E9I please.
Response line: -0.241
